Property: AUC, modulator BJ.Boc D; scope: individual compounds
test system: BJeLR; experiment: Modulatory profiling: Alamar Blue viability, lethal compound cotreated with death modulator (EC50, AUC); format: cell-based, human; set-up: unit not given beside the values; conditions: BJeLR cells; lethal compound cotreated with modulator Boc D; modulatory profile value (AUC); note: reference of the scale not given here

Please review the entries below; each comes with its answer.
compound-string | tgt | AUC, modulator BJ.Boc D
CC1(C)CC(=O)C2=C(C1)OC1=C(C(=O)CC(C)(C)C1)C2c1ccc(O)cc1O | BJeLR | −0.008658
Cc1cccc(-n2ncc(Cl)c(Cl)c2=O)c1 | BJeLR | −0.0406
O=c1c(Cl)c(Cl)cnn1-c1ccc(Cl)cc1 | BJeLR | −0.01053

Can you look up AUC, modulator BJ.Boc D on BJeLR for O=S1(=O)Nc2c(ccc3cccnc23)-c2ccccc21 ?
0.00578

So what AUC, modulator BJ.Boc D did O=C(/C=C/c1cccc(NC(=O)c2cccs2)c1)c1ccccc1 get with BJeLR?
−0.03229

Lab request: please report AUC, modulator BJ.Boc D under test system BJeLR for CC[C@]1(O)C[C@H]2CN(CCc3c([nH]c4ccccc34)[C@@](C(=O)OC)(c3cc4c(cc3OC)N(C=O)[C@H]3[C@@](O)(C(=O)OC)[C@H](OC(C)=O)[C@]5(CC)C=CCN6CC[C@]43[C@@H]65)C2)C1
−0.005016
